Values were extracted from paper PMC4336329.

Listing: hERG current change (%, negative = inhibition) at 10uM of selected compounds
Target Of Assay: human ether-à-go-go-related gene (hERG) potassium channel (human, UniProt Q12809)
Sequence (Q12809 whole entry, looked up): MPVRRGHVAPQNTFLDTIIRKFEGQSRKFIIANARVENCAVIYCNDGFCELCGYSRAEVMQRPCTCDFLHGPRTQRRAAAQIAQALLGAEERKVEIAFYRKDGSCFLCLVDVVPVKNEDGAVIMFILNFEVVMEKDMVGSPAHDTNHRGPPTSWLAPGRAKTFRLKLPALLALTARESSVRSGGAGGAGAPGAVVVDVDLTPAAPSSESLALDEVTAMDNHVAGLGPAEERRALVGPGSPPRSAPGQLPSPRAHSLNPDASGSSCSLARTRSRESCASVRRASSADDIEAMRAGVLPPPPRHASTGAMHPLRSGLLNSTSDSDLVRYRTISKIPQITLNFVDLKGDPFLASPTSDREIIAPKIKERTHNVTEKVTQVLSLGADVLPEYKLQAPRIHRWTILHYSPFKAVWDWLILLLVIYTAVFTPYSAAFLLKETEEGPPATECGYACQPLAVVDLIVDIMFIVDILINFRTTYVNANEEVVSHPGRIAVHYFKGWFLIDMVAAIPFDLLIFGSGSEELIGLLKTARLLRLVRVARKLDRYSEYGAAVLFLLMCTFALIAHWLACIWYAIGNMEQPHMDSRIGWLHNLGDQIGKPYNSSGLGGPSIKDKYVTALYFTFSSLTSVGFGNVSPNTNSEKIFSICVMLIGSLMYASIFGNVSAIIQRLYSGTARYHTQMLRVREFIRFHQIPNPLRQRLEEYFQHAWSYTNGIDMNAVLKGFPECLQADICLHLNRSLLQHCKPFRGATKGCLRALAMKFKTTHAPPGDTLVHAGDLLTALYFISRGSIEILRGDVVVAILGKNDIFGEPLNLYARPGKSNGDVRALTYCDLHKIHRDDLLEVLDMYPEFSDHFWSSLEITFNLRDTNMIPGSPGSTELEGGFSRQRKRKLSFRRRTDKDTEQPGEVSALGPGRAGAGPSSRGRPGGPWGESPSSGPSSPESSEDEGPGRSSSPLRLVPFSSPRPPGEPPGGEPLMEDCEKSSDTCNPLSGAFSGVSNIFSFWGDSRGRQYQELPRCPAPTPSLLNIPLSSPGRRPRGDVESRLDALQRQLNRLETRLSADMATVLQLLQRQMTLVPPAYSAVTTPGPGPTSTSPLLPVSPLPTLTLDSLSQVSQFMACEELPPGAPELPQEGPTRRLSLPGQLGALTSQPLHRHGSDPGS
Procedure Text: primary screen, population patch clamp on CHO cells stably expressing hERG; higher = less effect of the substance
The campaign covered roughly 310,000 compounds. About 14,000 (4.5%) showed an effect of 50% or more. The effect is printed as a negative number. The full list was thinned out, with strong results kept by preference.
Please reply with the bare figure in % and do not write the unit itself.

Previously resolved entries follow.
Compound: CCn1cc(/C=N\NC(=O)Cc2ccc(Cl)cc2)cn1
Reported Value: -12
//
Compound: CCOc1ccc(NC(=O)CN(C)C(=O)c2cc([N+](=O)[O-])ccc2N2CCOCC2)cc1OCC
Reported Value: -52.5
//
Compound: CN(C)CC/C=C1\c2cc(F)ccc2CSc2ccccc21.O=C(O)/C=C\C(=O)O
Reported Value: -35.4
//
Compound: CCc1ccc(NC(=O)CSc2nc3ccccc3c(=O)n2CCCN2CCC(C)CC2)cc1
Reported Value: -67.2

# evaluate next
Input line: Bench note: what hERG current change (%, negative = inhibition) at 10uM did `CC1CCN(CCCn2c(SCC(=O)NC3CCCC3)nc3ccccc3c2=O)CC1` show?
Output line: -77

----------
Listing: hERG current change (%, negative = inhibition) at 10uM of selected compounds
Target Of Assay: human ether-à-go-go-related gene (hERG) potassium channel (human, UniProt Q12809)
Procedure Text: primary screen, population patch clamp on CHO cells stably expressing hERG; higher = less effect of the substance
In all, about 310,000 compounds went through this assay and about 14,000 (4.5%) showed an effect of 50% or more. The effect is printed as a negative number. This excerpt belongs to a sample that is enriched for strong results.
Please reply with the bare figure in % and do not write the unit itself.

Input line: Bench note: what hERG current change (%, negative = inhibition) at 10uM did CC(C)CN1CCN(Cc2cnc(-c3ccc(Cl)cc3)nc2)CC1CCO (stereo not drawn) show?
Output line: -67.2

Input line: Bench note: what hERG current change (%, negative = inhibition) at 10uM did NS(=O)(=O)c1cc2c(cc1Cl)NC(C(Cl)Cl)NS2(=O)=O (stereo not drawn) show?
Output line: 20.2

Input line: Bench note: what hERG current change (%, negative = inhibition) at 10uM did `COC(=O)c1ccc(-c2nc(CN3CCN(Cc4cccc(C)c4)CC3)c(C)o2)cc1` show?
Output line: -25.3

Input line: Bench note: what hERG current change (%, negative = inhibition) at 10uM did `O=C(NC(=S)N(Cc1ccccc1)Cc1ccccc1)C1CCCCC1` show?
Output line: 12.6

Input line: Bench note: what hERG current change (%, negative = inhibition) at 10uM did Cc1ccccc1-c1ncc(CN2CCN(C3CCCC3)C(CCO)C2)cn1 (stereo not drawn) show?
Output line: -25.8

Input line: Bench note: what hERG current change (%, negative = inhibition) at 10uM did Cc1ccccc1C(=O)NNC(=O)C1CC(=O)N(Cc2ccccc2)C1 (stereo not drawn) show?
Output line: 2.19

Input line: Bench note: what hERG current change (%, negative = inhibition) at 10uM did `Cc1oc(-c2ccc(Cl)cc2)nc1CN1CCC(C(=O)N2CCc3ccccc3C2)CC1` show?
Output line: -74

Input line: Bench note: what hERG current change (%, negative = inhibition) at 10uM did `CCCC(=O)Nc1c2c(nc3ccccc13)N(c1ccccc1)CC2` show?
Output line: -1.55

Input line: Bench note: what hERG current change (%, negative = inhibition) at 10uM did CC12C=CC3(O1)C(C(=O)N1CCCOC13)C2C(=O)O (stereo not drawn) show?
Output line: -2.54

----------
Target Of Assay: human ether-à-go-go-related gene (hERG) potassium channel (human, UniProt Q12809)
Procedure Text: primary screen, population patch clamp on CHO cells stably expressing hERG; higher = less effect of the substance
Hit rate of the full screen: of about 310,000 compounds, about 14,000 (4.5%) showed an effect of 50% or more. The effect is printed as a negative number. What follows is part of a selection rich in strong results, with near analogues and random picks from the rest.
Classification field: YES = hERG current change (%, negative = inhibition) at 10uM at or over -40%; NO = hERG current change (%, negative = inhibition) at 10uM under -40%.

Compound: CCOc1ccc(C(=O)c2cnc3ccccc3c2N2CCN(CC)CC2)cc1
Label: NO
//
Compound: Cc1ccc(S(=O)(=O)N2CCC(C(N)=O)CC2)cc1C(=O)NC1CCCCC1
Label: YES
//
Compound: O=C(CN1C(=O)CC(c2ccco2)Sc2ccccc21)Nc1ccc2c(c1)OCCO2 (stereo not drawn)
Label: YES

Input line: Is it the case that `COc1ccc(C(=O)c2cnc3ccccc3c2-c2ccccc2)cc1` has hERG current change (%, negative = inhibition) at 10uM reaching or exceeding -40%?
Output line: YES

Input line: Is it the case that CCOC(=O)C1CCCN(c2c(C(=O)c3ccccc3)cnc3ccccc23)C1 (stereo not drawn) has hERG current change (%, negative = inhibition) at 10uM reaching or exceeding -40%?
Output line: YES

Input line: Is it the case that `CCN1CCN(c2c(C(=O)c3ccc(OC)cc3)cnc3ccccc23)CC1` has hERG current change (%, negative = inhibition) at 10uM reaching or exceeding -40%?
Output line: NO

Input line: Is it the case that CCOC(=O)C1CCCN(c2c(C(=O)c3ccccc3)cnc3ccc(OC)cc23)C1 (stereo not drawn) has hERG current change (%, negative = inhibition) at 10uM reaching or exceeding -40%?
Output line: YES

Input line: Is it the case that Cc1cc(NC(=O)CN2C(=O)CC(c3ccco3)Sc3ccccc32)no1 (stereo not drawn) has hERG current change (%, negative = inhibition) at 10uM reaching or exceeding -40%?
Output line: NO

Input line: Is it the case that `COc1cc(/C=N/Nc2ccccn2)ccc1OCC(C)C` has hERG current change (%, negative = inhibition) at 10uM reaching or exceeding -40%?
Output line: YES

----------
Listing: hERG current change (%, negative = inhibition) at 10uM of selected molecules
Target Of Assay: human ether-à-go-go-related gene (hERG) potassium channel (human, UniProt Q12809)
Procedure Text: primary screen, population patch clamp on CHO cells stably expressing hERG; higher = less effect of the substance
About 14,000 (4.5%) of roughly 310,000 compounds showed an effect of 50% or more. Effects have a minus sign here. This is one part of a sample in which strong results are shown more often than they occur.
Please reply with the bare figure in % and do not write the unit itself.

Previously resolved entries follow.
Molecule: Cc1ccc(C(=O)N[C@@H](C)CN2C3=NC[C@H](C(C)C)N3C[C@H]2Cc2ccc(O)cc2)cc1Br
Reported Value: -77.7
//
Molecule: CC(C)[C@H]1CN(C)CCN1Cc1cn(C)nc1-c1cccc(Cl)c1
Reported Value: -27
//
Molecule: Cc1cc(C(c2nnnn2Cc2ccccc2)N2CCOCC2)c(C)n1-c1ccc2c(c1)OCO2 (stereo not drawn)
Reported Value: -32.1

Input line: Bench note: what hERG current change (%, negative = inhibition) at 10uM did `C[C@]12CS(=O)(=O)C[C@H]1SC(=S)N2c1ccccc1` show?
Output line: -0.916

Input line: Bench note: what hERG current change (%, negative = inhibition) at 10uM did Cc1ccccc1N1CCN(C2CCCN(C(=O)CCC3(C)CC3)C2)CC1 (stereo not drawn) show?
Output line: -48.6

Input line: Bench note: what hERG current change (%, negative = inhibition) at 10uM did CC1(CCC(=O)N2CCCC(N3CCN(c4cccc(C(F)(F)F)c4)CC3)C2)CC1 (stereo not drawn) show?
Output line: -61.5

Input line: Bench note: what hERG current change (%, negative = inhibition) at 10uM did O=C(OCc1nnc(-c2ccccc2)o1)C1CC(=O)N(c2ccccc2)C1 (stereo not drawn) show?
Output line: -21.5

Input line: Bench note: what hERG current change (%, negative = inhibition) at 10uM did `Cc1cnc(C(=O)OCC(=O)N=c2sccn2Cc2ccccc2Cl)cn1` show?
Output line: 10.1

Input line: Bench note: what hERG current change (%, negative = inhibition) at 10uM did `O=C(Nc1cccc(Cl)c1)OCc1cncs1` show?
Output line: -2.42

----------
Listing: hERG current change (%, negative = inhibition) at 10uM of selected molecules
Target Of Assay: human ether-à-go-go-related gene (hERG) potassium channel (human)
Procedure Text: primary screen, population patch clamp on CHO cells stably expressing hERG; higher = less effect of the substance
Hit rate of the full screen: of about 310,000 compounds, about 14,000 (4.5%) showed an effect of 50% or more. The effect is printed as a negative number. The full list was thinned out, with strong results kept by preference.
Please reply with the bare figure in % and do not write the unit itself.

Previously resolved entries follow.
Molecule: CCCCn1nnnc1NCc1cccnc1
Reported Value: 8.93

Molecule: CCCCNCCOCCSc1ccc(Cl)cc1.O=C(O)C(=O)O
Reported Value: -43.5

Molecule: Cc1ccc(-c2[nH]ncc2C(=O)c2ccc(Br)cc2)c(O)c1
Reported Value: -9.43

Input line: // lookup hERG current change (%, negative = inhibition) at 10uM | system=human ether-à-go-go-related gene (hERG) potassium channel (human) | key= `CCCCNCCOCCOc1ccccc1-c1ccccc1.O=C(O)C(=O)O`
Output line: -50.1

Input line: // lookup hERG current change (%, negative = inhibition) at 10uM | system=human ether-à-go-go-related gene (hERG) potassium channel (human) | key= O=C(CN(C(=O)c1ccccc1Cl)N1C(=O)C2C3C=CC(C3)C2C1=O)c1cccs1 (centres unmarked)
Output line: 7.25

Input line: // lookup hERG current change (%, negative = inhibition) at 10uM | system=human ether-à-go-go-related gene (hERG) potassium channel (human) | key= `CCCCNCCOCCOc1ccc(C)cc1Br.O=C(O)C(=O)O`
Output line: -32.1

Input line: // lookup hERG current change (%, negative = inhibition) at 10uM | system=human ether-à-go-go-related gene (hERG) potassium channel (human) | key= `O=C(OCC(=O)N(CCc1ccccc1)Cc1ccccc1)c1ccccc1[N+](=O)[O-]`
Output line: 1.95

Input line: // lookup hERG current change (%, negative = inhibition) at 10uM | system=human ether-à-go-go-related gene (hERG) potassium channel (human) | key= CCC(C)NC(=O)CN(C1CCCCC1)S(C)(=O)=O (centres unmarked);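 further: peak tail current of the secondary pulse compared with the same well before compound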
Output line: 9.11

Input line: // lookup hERG current change (%, negative = inhibition) at 10uM | system=human ether-à-go-go-related gene (hERG) potassium channel (human) | key= `CCCCNCCCOc1ccc(C)cc1Br.O=C(O)C(=O)O`;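 further: peak tail current of the secondary pulse compared with the same well before compound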
Output line: -35

Input line: // lookup hERG current change (%, negative = inhibition) at 10uM | system=human ether-à-go-go-related gene (hERG) potassium channel (human) | key= `COCCCNCCCOc1ccc(C)cc1Br.O=C(O)C(=O)O`;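 further: peak tail current of the secondary pulse compared with the same well before compound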
Output line: -30.7

Input line: // lookup hERG current change (%, negative = inhibition) at 10uM | system=human ether-à-go-go-related gene (hERG) potassium channel (human) | key= `CCCCNCCOc1ccccc1-c1ccccc1.O=C(O)C(=O)O`;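 further: peak tail current of the secondary pulse compared with the same well before compound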
Output line: -28.2
